Below, each entry is listed alongside its reported IC50.
target: human recombinant PDE9 enzyme (Homo sapiens, UniProt O76083); construct: made in house; host or cells: SF-9 insect cells; test: Phosphodiesterase 9 (PDE9) inhibitory activity, Scintillation Proximity (SPA) assay; type: biochemical; settings: human recombinant PDE9 from SF-9 cells; 50 nM [3H]cGMP; room temperature, 30 min; additional compounds Ex. 115-228; read-out: G5678A (U):IC50
Sequence (O76083 whole entry): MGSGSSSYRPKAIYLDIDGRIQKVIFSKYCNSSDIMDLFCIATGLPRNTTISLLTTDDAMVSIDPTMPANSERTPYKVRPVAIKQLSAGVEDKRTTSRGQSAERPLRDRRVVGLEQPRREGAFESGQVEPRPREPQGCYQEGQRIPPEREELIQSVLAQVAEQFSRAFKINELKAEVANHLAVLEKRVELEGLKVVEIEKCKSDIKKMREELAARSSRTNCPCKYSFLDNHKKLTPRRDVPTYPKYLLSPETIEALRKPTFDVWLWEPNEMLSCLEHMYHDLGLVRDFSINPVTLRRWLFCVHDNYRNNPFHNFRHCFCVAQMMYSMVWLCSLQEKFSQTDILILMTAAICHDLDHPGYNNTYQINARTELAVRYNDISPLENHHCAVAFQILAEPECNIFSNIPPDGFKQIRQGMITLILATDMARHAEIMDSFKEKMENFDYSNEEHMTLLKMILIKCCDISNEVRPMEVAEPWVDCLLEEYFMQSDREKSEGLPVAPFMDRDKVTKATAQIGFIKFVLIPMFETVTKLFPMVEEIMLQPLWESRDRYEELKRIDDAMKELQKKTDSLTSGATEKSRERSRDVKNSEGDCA
Hi! Could you send only the number? It should be in nM, unit omitted.

>>> result("C[C@@H]1CN(Cc2cn3ccccc3n2)C[C@H]1c1nc2c(cnn2C2CCCC2)c(=O)[nH]1 (racemic)")
44.7
>>> result("C[C@@H]1CN(Cc2cccc(-n3cccn3)c2)C[C@H]1c1nc2c(cnn2C2CCCC2)c(=O)[nH]1 (racemic)")
40.4
>>> result("Cc1ncc(CN2C[C@@H](C)[C@H](c3nc4c(cnn4C4CCCC4)c(=O)[nH]3)C2)s1 (racemic)")
41.9

Query :: # return recorded IC50 for input CCn1cc(CN2C[C@@H](C)[C@H](c3nc4c(cnn4C4CCCC4)c(=O)[nH]3)C2)cn1 (racemic)
Result :: 74.6
